Sourced from patent US20260232830A1

- assayedTarget: T1, human EGFR-His antigen (human, UniProt P00533 25-645)
- T1 construct: also called hEGFR-His
- assayText: SPR Biacore 8K, antibody on Protein A chip, 1:1 fit
Threshold check on Kd: strictly below 100 nM is Yes; on or above 100 nM is No.

- binder: "ZalH5 (antibody, human IgG1, kappa, V domains shown, anti-EGFR zalutumumab variant, human IgG1) VH: QVQLVESGGGVVQPGRSLRLSCAASGFTFSTYGMHWVRQAPGKGLEWVAVIWDDGSYKYYGDSVKGRFTISRDNSKNTLYLQMNSLRAEDTAVYYCARDGATMVRGVMKDYFDYWGQGTLVTVSS VL: DIQLTQSPSSLSASVGDRVTITCRASQDISSALVWYQQKPGKAPKLLIYDASSLESGVPSRFSGSESGTDFTLTISSLQPEDFATYYCQQFNSYPLTFGGGTKVEIKR"
  labelValue: "Yes"
- binder: "ZalH14 (antibody, human IgG1, kappa, V domains shown, anti-EGFR zalutumumab variant, human IgG1) VH: QVQLVESGGGVVQPGRSLRLSCAASGFTFSTYGMHWVRQAPGKGLEWVAVIWYDGSNKYYADSVKGRFTISRDNSKNTLYLQMNSLRAEDTAVYYCARDGITMVRGVMKDYFDYWGQGTLVTVSS VL: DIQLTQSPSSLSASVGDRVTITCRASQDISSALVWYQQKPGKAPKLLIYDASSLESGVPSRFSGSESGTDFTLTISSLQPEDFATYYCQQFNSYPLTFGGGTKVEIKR"
  labelValue: "No"
- binder: "ZalH10 (antibody, human IgG1, kappa, V domains shown, anti-EGFR zalutumumab variant, human IgG1) VH: QVQLVESGGGVVQPGRSLRLSCAASGFTFSSYGMHWVRQAPGKGLEWVAVIWDDGSYKYYGDSVKGRFTISRDNSKNTLYLQMNSLRAEDTAVYYCARDGATMVRGVMKDYFDYWGQGTLVTVSS VL: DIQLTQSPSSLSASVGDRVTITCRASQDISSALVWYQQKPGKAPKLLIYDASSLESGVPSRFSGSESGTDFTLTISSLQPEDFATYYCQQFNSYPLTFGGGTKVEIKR"
  labelValue: "No"
- binder: "ZalH9 (antibody, human IgG1, kappa, V domains shown, anti-EGFR zalutumumab variant, human IgG1) VH: QVQLVESGGGVVQPGRSLRLSCAASGFTFSSYGMHWVRQAPGKGLEWVAVIWDDGSYKYYGDSVKGRFTISRDNSKNTLYLQMNSLRAEDTAVYYCARDGVTMVRGVMKDYFDYWGQGTLVTVSS VL: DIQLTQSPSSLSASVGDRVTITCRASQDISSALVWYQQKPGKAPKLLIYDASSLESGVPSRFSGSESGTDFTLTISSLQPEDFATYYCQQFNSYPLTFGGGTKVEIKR"
  labelValue: "Yes"
- binder: "ZalH8 (antibody, human IgG1, kappa, V domains shown, anti-EGFR zalutumumab variant, human IgG1) VH: QVQLVESGGGVVQPGRSLRLSCAASGFTFSSYGMHWVRQAPGKGLEWVAVIWDDGSYKYYGDSVKGRFTISRDNSKNTLYLQMNSLRAEDTAVYYCARDGLTMVRGVMKDYFDYWGQGTLVTVSS VL: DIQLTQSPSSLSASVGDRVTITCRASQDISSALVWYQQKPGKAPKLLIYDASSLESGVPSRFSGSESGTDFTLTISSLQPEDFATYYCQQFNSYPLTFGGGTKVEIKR"
  labelValue: "No"
